Cited source: patent US11857560B2

# measurement.description: Cytotoxicity in Huh-7 cells (HSV-1 assay)
# Format: cell-based
# test.context: human, beside HSV-1
metric.name: CC50

I am curious: what CC50 value has been reported for CC(C)OC(=O)[C@H](C)NP(=O)(OC[C@H]1O[C@@H](n2ccc(=O)[nH]c2=S)[C@](C)(O)C1O)Oc1ccccc1 (stereo partly shown) ? > 100 µM

###

# measurement.description: Cytotoxicity in PBM cells (HIV assay)
# Type: cell-based
# test.context: human, peripheral blood mononuclear cells (PBMCs), PHA-P stimulated; beside HIV
metric.name: CC50 at 7 days

For the compound CC(C)OC(=O)[C@H](C)NP(=O)(OC[C@H]1O[C@@H](n2ccc(=O)[nH]c2=S)[C@](C)(O)C1O)Oc1ccccc1 (stereo partly shown) , what CC50 at 7 days is on record? > 100 µM
